- SYSTEM_TESTED: human PDE4B1 (Homo sapiens, UniProt Q07343)
- Construct: host or cells: Sf9 cells
- Sequence (Q07343 whole entry): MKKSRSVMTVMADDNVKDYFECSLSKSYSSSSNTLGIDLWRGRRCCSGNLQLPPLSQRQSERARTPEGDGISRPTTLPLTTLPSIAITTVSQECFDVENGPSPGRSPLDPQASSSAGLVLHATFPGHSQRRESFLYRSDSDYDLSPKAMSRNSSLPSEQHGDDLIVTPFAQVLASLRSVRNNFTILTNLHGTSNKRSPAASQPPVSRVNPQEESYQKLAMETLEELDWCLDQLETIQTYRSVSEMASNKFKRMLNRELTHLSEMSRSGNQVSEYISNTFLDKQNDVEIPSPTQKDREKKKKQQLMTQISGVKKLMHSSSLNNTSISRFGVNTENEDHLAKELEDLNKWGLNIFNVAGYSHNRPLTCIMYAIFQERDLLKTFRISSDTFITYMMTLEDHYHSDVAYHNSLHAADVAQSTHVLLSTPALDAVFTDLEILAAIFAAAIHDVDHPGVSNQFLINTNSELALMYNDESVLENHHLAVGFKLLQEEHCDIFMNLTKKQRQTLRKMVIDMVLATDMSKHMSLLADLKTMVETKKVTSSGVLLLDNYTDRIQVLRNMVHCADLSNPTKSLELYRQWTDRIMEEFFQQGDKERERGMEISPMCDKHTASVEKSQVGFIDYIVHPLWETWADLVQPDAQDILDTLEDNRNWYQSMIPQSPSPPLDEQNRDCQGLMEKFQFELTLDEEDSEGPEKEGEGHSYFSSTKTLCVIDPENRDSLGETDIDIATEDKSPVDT
- PROTOCOL: TR-FRET assay using the LANCE Ultra cAMP kit to determine the activity of hPDE4B1
- Format: biochemical
- RUN_CONDITIONS: test substrate concentration of 10 μM, read-out: Inhibition of PDE4B, Inhibition in %
MEASURE_NAME: inhibition at 10 µM (%)

Task: Look at this compound and give its reported inhibition at 10 µM. CCOc1ccc(F)c(-c2cnc(-n3nc(C4CC4)c4ccc(C(=O)N5CCOCC5)cc43)nc2)c1 [Compound No. 51]
Result: 103

Task: # lookup: inhibition at 10 µM of Cc1ccc(F)c(-c2cnc(-n3nc([S+](C)[O-])c4ccc(C(=O)N5CCOCC5)cc43)nc2)c1 (single isomer, unassigned) [Compound No. 65]
Result: 100

Task: Which inhibition at 10 µM value belongs to CCc1ccc(F)c(-c2cnc(-n3nc(C(C)O)c4ccc(C(=O)N(C)CC(N)=O)cc43)nc2)c1 (stereo not shown) [Compound No. 68] ?
Result: 106

Task: Which inhibition at 10 µM is reported for this compound? CN(CC(N)=O)C(=O)c1ccc2c(C3CC3)nn(-c3ncc(-c4cc(S(C)(=O)=O)ccc4F)cn3)c2c1 [Compound No. 59]
Result: 96

Task: Which value of inhibition at 10 µM has been reported for CC(O)c1ccc(F)c(-c2cnc(-n3nc(C4CC4)c4ccc(C(=O)N5CCOCC5)cc43)nc2)c1 (stereo not shown) [Compound No. 52] in the records?
Result: 117

Task: Return reported inhibition at 10 µM; argument: CS(=O)(=O)c1ccc(F)c(-c2cnc(-n3nc(C4CC4)c4ccc(C(=O)N5CCOCC5)cc43)nc2)c1 [Compound No. 58]
Result: 105

Task: Query: inhibition at 10 µM; subject: Cc1ccc(F)c(-c2cnc(-n3nc(C(C)O)c4ccc(C(=O)N(C)CCO)cc43)nc2)c1 (stereo not shown) [Compound No. 66]
Result: 105

Task: For the compound CC(O)c1nn(-c2ncc(-c3cccc(C4CC4)c3)cn2)c2cc(C(=O)N3CCOCC3)ccc12 (stereo not shown) [Compound No. 76] , what inhibition at 10 µM is on record?
Result: 102

Task: Which measured inhibition at 10 µM value corresponds to Cc1ccc(F)c(-c2cnc(-n3nc(C(C)O)c4ccc(C(=O)N(C)CC(N)=O)cc43)nc2)c1 (stereo not shown) [Compound No. 67] ?
Result: 90

Task: Given COc1ccnc(-c2cnc(-n3nc(C(C)O)c4ccc(C(=O)N5CCOCC5)cc43)nc2)c1 (stereo not shown) [Compound No. 71] , state its recorded inhibition at 10 µM.
Result: 108

---

- SYSTEM_TESTED: human PDE4B1 (Homo sapiens)
- Construct: host or cells: Sf9 cells
- PROTOCOL: cAMP HTRF assay to determine the activity of hPDE4B1
- Assay type: biochemical
- RUN_CONDITIONS: test substrate concentration of 1 μM, read-out: Inhibition of PDE4B, Inhibition in %
MEASURE_NAME: inhibition at 1 µM (%)

Task: Which inhibition at 1 µM is listed for `CS(=O)(=O)c1nn(-c2ncc(-c3cc(C#N)ccc3F)cn2)c2cc(C(=O)N3CCOCC3)ccc12` ?
Result: 86

Task: What value of measured inhibition at 1 µM is listed for `Cc1cccc(-c2cnc(-n3nc(S(C)(=O)=O)c4ccc(C(=O)N5CCOCC5)cc43)nc2)c1` ?
Result: 91

Task: Suppose we examine the molecule `CS(=O)(=O)c1nn(-c2ncc(-c3ccccc3)cn2)c2cc(C(=O)N3CCOCC3)ccc12` ; what inhibition at 1 µM value has been reported?
Result: 62

Task: // query inhibition at 1 µM value for entry `O=C(c1ccc2c(C3CC3)nn(-c3ncc(-c4ccccn4)cn3)c2c1)N1CCOCC1`
Result: 96

(1) C[S+]([O-])c1nn(-c2ncc(-c3ccccc3)cn2)c2cc(C(=O)N3CCOCC3)ccc12 (stereo not drawn)
(2) O=C(c1cc2c(cn1)c(C1CC1)nn2-c1ncc(-c2ccccc2F)cn1)N1CCCCC1
(3) O=C(c1cc2c(cn1)c(C1CC1)nn2-c1ncc(-c2ccccc2F)cn1)N1CCOCC1
(4) O=C(NC1CCOCC1)c1cc2c(cn1)c(C1CC1)nn2-c1ncc(-c2ccccc2F)cn1
Task: rank_up(items): orders items by reported inhibition at 1 µM in ascending numerical order. Reply with the item labels sorted in the order that was asked for.
Result: 4, 2, 3, 1
(4: 27%, 2: 39%, 3: 73%, 1: 115%)
